Reference source for all entries: patent US8178506B2

Tested on: HSL
Test: HSL mRNA expression in adipocytes (real-time PCR)
Type: cell-based, human
Details: differentiating adipocytes transfected with oligomeric compound; Table 75
Description: Expression of the four hallmark genes, HSL, aP2, Glut4, and PPARγ, is also measured in adipocytes transfected with oligomeric compounds of the invention. Cells are lysed on day nine post-transfection and total RNA is harvested. The amount of total RNA in each sample is determined using a Ribogreen Assay (Invitrogen Life Technologies, Carlsbad, Calif.). […]
In the oligonucleotide strings, read from the 5' end, every base follows the letter of its sugar. An asterisk marks phosphorothioate; unmarked linkages are phosphodiester. Other units and linkages are bracketed, terminal groups are in braces. A string of capitals states the bases alone. e = 2'-O-(2-methoxyethyl) (MOE); [5mC] = 5-methylcytosine
Measured metric: HSL mRNA

Substance	Result
328100 (antisense eA*eA*eT*e[5mC]*eT*e[5mC]*eT*eG*e[5mC]*eA*eG*eG*e[5mC]*eA*eA*eA*eT*eG*eT*eG*eA) [compound 328100]	49 percentage of untreated control (UTC)
328138 (eG*eA*eG*e[5mC]*eT*eG*e[5mC]*eT*e[5mC]*eA*eG*e[5mC]*eT*eG*eG*e[5mC]*e[5mC]*eA*eT*e[5mC]*eA; anti-miR) [compound 328138]	56 percentage of untreated control (UTC)
340343 (antisense ACAGGAGUCUGAGCAUUUGA; all 2'-MOE, all phosphorothioate, methylation of C and T or U not given here) [compound 340343]	46 percentage of untreated control (UTC)
328099 (antisense eA*eA*eG*eA*eA*e[5mC]*eA*eT*eT*eA*eA*eG*e[5mC]*eA*eT*e[5mC]*eT*eG*eA*e[5mC]*eA) [compound 328099]	74 percentage of untreated control (UTC)
340358 (antisense CAGCUAUGCCAGCAUCUUGCC; all 2'-MOE, all phosphorothioate, methylation of C and T or U not given here) [compound 340358]	24 percentage of untreated control (UTC)

----------
This listing pairs substances with measured TG (triglyceride accumulation).
system: adipocytes; experiment: Triglyceride accumulation assay in adipocytes; assay type: cell-based, human; settings: differentiating adipocytes transfected with oligomeric compound; Table 75
In the oligonucleotide strings, read from the 5' end, every base follows the letter of its sugar. An asterisk marks phosphorothioate; unmarked linkages are phosphodiester. Other units and linkages are bracketed, terminal groups are in braces. A string of capitals states the bases alone. e = 2'-O-(2-methoxyethyl) (MOE); [5mC] = 5-methylcytosine

Substance	TG (triglyceride accumulation)
327936 (antisense eA*e[5mC]*eA*eG*e[5mC]*eT*eG*eG*eT*eT*eG*eA*eA*eG*eG*eG*eG*eA*e[5mC]*e[5mC]*eA*eA) [compound 327936]	23 percentage of untreated control (UTC)
328120 (antisense eA*eA*eG*eA*eA*eG*eG*eA*eA*eG*eG*eA*eG*eG*eG*eA*eA*eA*eG*e[5mC]*eA) [compound 328120]	80 percentage of untreated control (UTC)
327920 (antisense eG*eA*eG*eA*e[5mC]*e[5mC]*e[5mC]*eA*eG*eT*eA*eG*e[5mC]*e[5mC]*eA*eG*eA*eT*eG*eT*eA*eG*e[5mC]*eT) [compound 327920]	20 percentage of untreated control (UTC)
327972 (antisense eA*e[5mC]*eT*e[5mC]*eA*e[5mC]*e[5mC]*eG*eA*e[5mC]*eA*eG*eG*eT*eT*eG*eA*eA*eT*eG*eT*eT) [compound 327972]	67 percentage of untreated control (UTC)
341797 (antisense ACAAGUGCCUUCACUGCAGU; all 2'-MOE, all phosphorothioate, methylation of C and T or U not given here) [compound 341797]	20 percentage of untreated control (UTC)

----------
system: aP2; experiment: aP2 mRNA expression in adipocytes (real-time PCR); type: cell-based, human; conditions: differentiating adipocytes transfected with oligomeric compound; Table 75
In the oligonucleotide strings, read from the 5' end, every base follows the letter of its sugar. An asterisk marks phosphorothioate; unmarked linkages are phosphodiester. Other units and linkages are bracketed, terminal groups are in braces. A string of capitals states the bases alone. e = 2'-O-(2-methoxyethyl) (MOE); [5mC] = 5-methylcytosine

Substance	aP2 mRNA
328128 (antisense eA*eG*eT*eA*eA*e[5mC]*eT*eT*e[5mC]*eT*eT*eG*e[5mC]*eA*eG*eT*eT*eG*eG*eA) [compound 328128]	90 percentage of untreated control (UTC)
327885 (antisense eA*e[5mC]*eT*eA*e[5mC]*e[5mC]*eT*eG*e[5mC]*eA*e[5mC]*eT*eG*eT*eA*eA*eG*e[5mC]*eA*e[5mC]*eT*eT*eT*eG) [compound 327885]	69 percentage of untreated control (UTC)
327961 (antisense eG*eG*eG*eG*eT*eA*eT*eT*eT*eG*eA*e[5mC]*eA*eA*eA*e[5mC]*eT*eG*eA*e[5mC]*eA) [compound 327961]	91 percentage of untreated control (UTC)

----------
tested on: HSL; assay: HSL mRNA expression in adipocytes (real-time PCR); assay type: cell-based, human; conditions: differentiating adipocytes transfected with oligomeric compound; Table 75
In the oligonucleotide strings, read from the 5' end, every base follows the letter of its sugar. An asterisk marks phosphorothioate; unmarked linkages are phosphodiester. Other units and linkages are bracketed, terminal groups are in braces. A string of capitals states the bases alone. e = 2'-O-(2-methoxyethyl) (MOE); [5mC] = 5-methylcytosine
HSL mRNA overview
Measured metric: HSL mRNA

Substance	Result
328110 (antisense eG*eA*eT*eA*eA*eA*eG*e[5mC]*e[5mC]*eA*eA*eT*eA*eA*eA*e[5mC]*eT*eG*eT*e[5mC]*eA) [compound 328110]	84 percentage of untreated control (UTC)
327895 (antisense eA*e[5mC]*eA*eA*eA*e[5mC]*eA*e[5mC]*e[5mC]*eA*eT*eT*eG*eT*e[5mC]*eA*e[5mC]*eA*e[5mC]*eT*e[5mC]*e[5mC]*eA) [compound 327895]	88 percentage of untreated control (UTC)
328097 (antisense eT*eG*eT*e[5mC]*eA*eG*eA*eT*eA*eA*eA*e[5mC]*eA*eG*eA*eG*eT*eG*eG*eA*eA) [compound 328097]	54 percentage of untreated control (UTC)
328096 (antisense e[5mC]*e[5mC]*eT*e[5mC]*eT*e[5mC]*eA*eA*eA*eG*eA*eT*eT*eT*e[5mC]*e[5mC]*eT*eG*eT*e[5mC]*eA) [compound 328096]	76 percentage of untreated control (UTC)
327907 (antisense eA*eG*e[5mC]*e[5mC]*eT*eA*eT*e[5mC]*e[5mC]*eT*eG*eG*eA*eT*eT*eA*e[5mC]*eT*eT*eG*eA*eA) [compound 327907]	21 percentage of untreated control (UTC)
346920 (AGCAAAAAUGUGCUAGUGCCAAA; all 2'-MOE, all phosphorothioate, methylation of C and T or U not given here) [compound 346920]	53 percentage of untreated control (UTC)
346913 (AGAAAGGCAGCAGGUCGUAUAG; all 2'-MOE, all phosphorothioate, methylation of C and T or U not given here) [compound 346913]	58 percentage of untreated control (UTC)
328115 (antisense eA*eG*eA*eA*eG*eG*eT*eG*eG*eG*eG*eA*eG*e[5mC]*eA*eG*e[5mC]*eG*eT*e[5mC]*eA) [compound 328115]	75 percentage of untreated control (UTC)
341791 (antisense GCUUCCAGUCGAGGAUGUUUACA; all 2'-MOE, all phosphorothioate, methylation of C and T or U not given here) [compound 341791]	72 percentage of untreated control (UTC)

----------
Fold Increase over UTC (caspase-3 activity, apoptosis) for assorted substances
test system: T47D cells; experiment: Caspase-3 activity assay (apoptosis) in T47D cells; conditions: T47D cells, 200 nM oligomeric compound, 48 hours; experiment of Table 11
In the oligonucleotide strings, read from the 5' end, every base follows the letter of its sugar. An asterisk marks phosphorothioate; unmarked linkages are phosphodiester. Other units and linkages are bracketed, terminal groups are in braces. A string of capitals states the bases alone. e = 2'-O-(2-methoxyethyl) (MOE); [5mC] = 5-methylcytosine; d = 2'-deoxy (DNA)
Measured metric: Fold Increase over UTC (caspase-3 activity, apoptosis) (fold)

Substance	Measured on	Units text	Number
328638 (e[5mC]*e[5mC]*eG*eA*eG*dG*dG*dT*d[5mC]*dT*dA*dA*d[5mC]*d[5mC]*d[5mC]*eA*eG*e[5mC]*e[5mC]*e[5mC]; antisense) [compound 328638]	T47D cells	fold	0.8
328655 (eT*eA*e[5mC]*eA*eA*d[5mC]*dG*dG*d[5mC]*dA*dT*dT*dG*dT*d[5mC]*e[5mC]*eT*eG*eA*eA; antisense) [compound 328655]	T47D cells	fold	0.7
328654 (eT*e[5mC]*e[5mC]*eA*eG*dG*dA*dT*dG*d[5mC]*dA*dA*dA*dA*dG*e[5mC]*eA*e[5mC]*eG*eA; antisense) [compound 328654]	T47D cells	fold	1.0
